Assay: Tissue levels after a single oral administration in rats (microbiological assay)
Assay type: in vivo
Conditions: rat, serum, 50 mg/kg oral, 0.5 hour; read-out: Serum concentration
measure: concentration at 0.5 h (ng/mL)
Please give a number only; it is taken to be in ng/mL.

Which concentration at 0.5 h value belongs to "CCn1cc(C(=O)O)c(=O)c2cc(F)c(N3CCN(Cc4ccc(N)cc4)CC3)c(F)c21" ? 4800

----------
Test: Tissue levels after a single oral administration in mice (microbiological assay)
Format: in vivo
Settings: mouse, lung, 50 mg/kg oral, 4.0 hour; read-out: Lung concentration
measure: concentration at 4 h

Which concentration at 4 h value belongs to CCn1cc(C(=O)O)c(=O)c2cc(F)c(N3CCN(Cc4ccc(N)cc4)CC3)c(F)c21 [compound (I)] ? 4300 ng/mL

These data points were gathered from patent US4429127A.
